Recorded GI50 by entry
# Test system: A431 cells
# assay remarks: Cell growth inhibition (CellTiter-Glo), A431
# Format: cell-based
# assay conditions: Homo sapiens, A-431, 72 h, 3 days

Take a look at these entries with their results.
- structure as smiles: "C=CC(=O)N1CCC(c2n[nH]c3ncnc(Nc4ccc(O[C@H]5CCCN(S(=O)(=O)c6cccs6)C5)cc4F)c23)CC1"
  measured target: "A431 cells"
  recorded endpoint: "GI50"
  recorded value: "> 1000 nM"
- structure as smiles: "C=CC(=O)N1CCC(c2c[nH]c3ncnc(Nc4ccc(Oc5ccnc(Nc6ccccn6)c5)cc4F)c23)CC1"
  measured target: "A431 cells"
  recorded endpoint: "GI50"
  recorded value: "200 to 1000 nM"
- structure as smiles: "C=CC(=O)N1CCC(c2n[nH]c3ncnc(Nc4ccc(OCc5nnsc5Cl)cc4F)c23)CC1"
  measured target: "A431 cells"
  recorded endpoint: "GI50"
  recorded value: "> 1000 nM"
- structure as smiles: "C=CC(=O)N1CCC(c2c[nH]c3ncnc(Nc4ccc(Oc5ccnc(N6C[C@@H](C)O[C@@H](C)C6)c5)cc4F)c23)CC1"
  measured target: "A431 cells"
  recorded endpoint: "GI50"
  recorded value: "> 1000 nM"
- structure as smiles: "C=CC(=O)N1CCC(c2ccn3ncnc(Nc4ccc(Oc5ccnc(N6C[C@@H](C)O[C@@H](C)C6)c5)cc4F)c23)CC1"
  measured target: "A431 cells"
  recorded endpoint: "GI50"
  recorded value: "> 1000 nM"
- structure as smiles: "C=CC(=O)N1CCC(c2c[nH]c3ncnc(Nc4ccc(Oc5ccnc(N6C[C@@H](C)O[C@@H](C)C6)c5)c(Cl)c4F)c23)CC1"
  measured target: "A431 cells"
  recorded endpoint: "GI50"
  recorded value: "> 1000 nM"

Moving on to another compound below.
Test system A431 cells; read-out GI50; what value for `C=CC(=O)N1CCC(c2csc3ncnc(Nc4ccc(Oc5ccn(Cc6cc(C)ccn6)n5)cc4F)c23)CC1` ?
> 1000 nM

Recorded values, source patent US20240059698A1.
